procedureDetails: soluble fraction after stress (log2 fold change); higher = more stays soluble; pooled small domains, quantitative proteomics
measurementSetup: stress: pH 4
So I've got a bunch of sequences here, and I need their soluble fraction (log2) values.
Write no unit; give the number alone.

Which soluble fraction (log2) value belongs to `HMAISEAERARLQTKIKERNKMARWINTNLNPTSKIRNINPAETVRKLMTQDDADSLERSLDAFMEA` ?
0.0822

Which soluble fraction (log2) value belongs to `HMEIETPEIRAIHDLLELLANKAKKPEQEQFVQAHPEVQWAKVEANKNGTFAVGKVKAYLKTLQA` ?
-0.568

Which soluble fraction (log2) value belongs to `HMVKPKIILADIGMITETDVTLAKASQAVLIAFNVKPSKEAKKLAEDENIKISTYNIIYEVLDFVKKSMSG` ?
0.0492

Which soluble fraction (log2) value belongs to `HMGSIDYLVGSRLRQYRRLRGYSLIEFSAMLHRSKSAISKYERGEVSIDLRTLNEMARLLDIPLSGLLL` ?
-0.283

Which soluble fraction (log2) value belongs to `HMSRPLISNMLRLLNLPPTVQRKVAAGVISAGHARALLGLNDEKEIEKLANRIVAEGLSVRATEEIVAIA` ?
-1.28

Which soluble fraction (log2) value belongs to `HMYLGRKATLLSSISGEKMGNAEVLADGNLMSIYVKSLTGEPLSYGSTVLIIKHSEDQNFYLVQN` ?
-0.65

Which soluble fraction (log2) value belongs to `HMGQEEKDIFLKLINISGIGPKLALNILSGIEASELEEAVRNTNVTRLSMVPGIGQKTALRIIMELSDKLE` ?
-0.881

Which soluble fraction (log2) value belongs to `HMRNAAGGIYGWMTLHQVAETVKLTEEEVIAITNLPAGIPRDVSLKNIEGVNDEELRALLEAYLEKQ` ?
-0.968

Which soluble fraction (log2) value belongs to `HMNAVYAEERRAYILAALEKRGTVHSYELAEQMGVSRETIRRDIMELSNRGLLVKTHGGAIST` ?
-0.352

Which soluble fraction (log2) value belongs to `HMKGQNRSEITAGARVKVVQKQDQRTGALTEGIVRDILTRSPHHPHGIKVRLESGIVGRVKDVL` ?
-0.287

Which soluble fraction (log2) value belongs to `HMGGKAITGGEGEIIIRADKAETVAIYGIDGRLVHRVSTEAGDTKRVSVPAGIYIVKGAKVVV` ?
0.42

Which soluble fraction (log2) value belongs to `HMNIDVAAEKQQLGPNADQIVKGTVTWMQGLVAKGIWSETDFEEGKIFTATADGINAINKIRRYYGEQT` ?
-0.439

Which soluble fraction (log2) value belongs to `HMISDEELLVSTKKEIMSLATVLTKTDKKDDAIAIMKEYDPAANPNRIKDVNKAKELLERLQKLG` ?
-0.104

Which soluble fraction (log2) value belongs to `HMDGQPLSERQQEILRWVAEGLSNREIGERLNITPNTVRDHLSEVMRRLEVSNRTSAVSTAFHLGLLP` ?
-0.178

Which soluble fraction (log2) value belongs to `HMLIRKGVVSFFNDAKGYGFIKDLVTQESAFVHVNSLSETIKEHDKVTFEVEMGHKGANAVNVKLVK` ?
-0.72

Which soluble fraction (log2) value belongs to `HMSESLRDLVLSLIPEDGSTIGNRALITRLREDLPDLTDEDYHEVRDQLIAEGVLAKGRGQGGSVARANG` ?
0.0415

Which soluble fraction (log2) value belongs to `HMTPADEAGNDLDIGQTVKILRRVSEGQYEVSYRGTTWQARALNAQAAVEPSFAVIGGKEGNILLVHL` ?
-0.115

###

procedureDetails: soluble fraction after stress (log2 fold change); higher = more stays soluble; pooled small domains, quantitative proteomics
measurementSetup: stress: pH 4
So I've got a bunch of sequences here, and I need their soluble fraction (log2) values.
Write no unit; give the number alone.

Which soluble fraction (log2) value belongs to `HMDDINVSNSKNIVPNVTGHTGSKAIPVLENLGLDVQYSGFGKVTNQSIPAGTRFKKGETIYLMLE` ?
-0.0218

Which soluble fraction (log2) value belongs to `HMLGDIYISIPRAKLQAEEYGHSFKRELAFLAVHGFYHLLGYDHQTKEEEEVMFGKQEEVLAEFDIKR` ?
-0.245

Which soluble fraction (log2) value belongs to `HMADRLITLSEVASLLRVSRHTVQAWISPSSPNHRPEFAIMARHAGRRTVFIEAEVTAWLDQRRG` ?
-0.7

Which soluble fraction (log2) value belongs to `HMEDKFEYQGERKSLIYPTSFSELTEALGVRNMLQSIIDFATRDEDTSGYEEMKERQNEYIQEYL` ?
0.0125

###

procedureDetails: soluble fraction after stress (log2 fold change); higher = more stays soluble; pooled small domains, quantitative proteomics
measurementSetup: stress: pH 4
Rule: soluble fraction (log2) under -0.6 gives NOT MET, otherwise MET.

Entry `HMESWEDSNIANEFKSTIKIAEKRLAEGGDHPELLEKLEALKQAIINENQTEASKLDDQVNDILFDMDD` : is its soluble fraction (log2) no less than -0.6?
MET

Entry `HMTDLVVGLAGITLEPLRPAGKAEFNGSVVDVVSLGDYIEKSTAIQIVEIEGNRIVVHHGED` : is its soluble fraction (log2) no less than -0.6?
NOT MET

Entry `HMYELSDTEWKIIEQVGLGASNKEIAASLHFSEGTIRNYLSVILDKLSLRDRTQLAILYVKMN` : is its soluble fraction (log2) no less than -0.6?
MET

Entry `HMTPTITNALEEAEKAVSEVQEGKKEIELTPQGAYIRHLQHAIADRYGISSTSTGRDPKRKVIIY` : is its soluble fraction (log2) no less than -0.6?
MET

Entry `HMSAPEGWMNRGDLRDNFRIQYPVTDRIIASYRESHPEWFGTYLSKTSKSLEYFHPDLVAKVREAAN` : is its soluble fraction (log2) no less than -0.6?
MET

Entry `HMSAEVSEIEIQRIISYYRNQNGVPDKYNEIFDRIAAQYTDEQLKVISNFLPSDVKQYLSFNNEKYKSLG` : is its soluble fraction (log2) no less than -0.6?
NOT MET

Entry `HMKALHEEIAEKIQEQILRSNLAPGDKLDTELELAARYGVSRSTIRQALIQLESAGLIDRLHGRGTFVAD` : is its soluble fraction (log2) no less than -0.6?
MET

Entry `HMGQAAHYEGVKGDGESDTDVISRVLTAAGAEAQKDDIFVVKELIAGGKYSYTAYVYDGSVWAAM` : is its soluble fraction (log2) no less than -0.6?
MET

###

procedureDetails: soluble fraction after stress (log2 fold change); higher = more stays soluble; pooled small domains, quantitative proteomics
measurementSetup: stress: pH 4
So I've got a bunch of sequences here, and I need their soluble fraction (log2) values.
Write no unit; give the number alone.

Which soluble fraction (log2) value belongs to `HMIDKIRYPELIMKLAHQQGGTIKRRDVEQLLHLQTKQAYRELSKLVDAGELVSVGRGPGAHYEVS` ?
-0.0885

Which soluble fraction (log2) value belongs to `HMGAKEHLAGETLRMAVELLSEKQGIPAEQALIRFISSPVYDALYDLDTGMWTQGPTRLLEAFEALE` ?
-1.69

Which soluble fraction (log2) value belongs to `HMEDSEYDRLLAEIDEGIRKAIETLEPVELSPQNARVRRIQHQIIEKYQLHSDSVGEEPYRRVRIL` ?
-1.03

Which soluble fraction (log2) value belongs to `HMDLMQRVIIVRPVMQGDYLTRAHLGLQTLSRNGGGGFTDIDDLVGRRAKKSLRAGLVVHNRHL` ?
0.124

###

procedureDetails: soluble fraction after stress (log2 fold change); higher = more stays soluble; pooled small domains, quantitative proteomics
measurementSetup: stress: pH 4
Rule: soluble fraction (log2) under -0.1 gives n, otherwise y.

Entry `HMGAGKVVDGVTYDFVFDVDVADGQPPLRLPYNRGEDVYQAAERFILRNELPATYREQIVNFIVQNTPG` : is its soluble fraction (log2) no less than -0.1?
n

Entry `HMNYSKQRETILKVLRSTRSHPSVNWIYENVKKEIPDVGLATVYRNLKQLEAAGEIMRIQGDFPEERWDGF` : is its soluble fraction (log2) no less than -0.1?
n

Entry `HMEFDIDAAIHAALEPQAVMRAWFGHEGREYPEDFGVVFFRGWESFTHQEKVEAVRDAKKVLDRAVR` : is its soluble fraction (log2) no less than -0.1?
n

Entry `HMDRDMGSMTDFENVRDAYLTGKVWNVGDLIEANGITGIIIRKGTNYVSYNDGDGKVHKAWLHDITL` : is its soluble fraction (log2) no less than -0.1?
n

Entry `HMALTLDEARTQGRVGETFYGYLVALKTDAETEKLVNDINAERKASYQQLAKQNNVSVDDIAKLAGQKLV` : is its soluble fraction (log2) no less than -0.1?
n

Entry `HMPSEAVQNIIGNVKSKRRVATIGQARGLASNVIKEGKFDNVSNTAMVNRLIDLGIISNSIGYQ` : is its soluble fraction (log2) no less than -0.1?
y

Entry `HMTDQYEVQNLVGLTVREAQEKEGVKDIFEVREVGSEFSAEYDAGLIVRQSPDAGEQRKGEGLVIEVWVSA` : is its soluble fraction (log2) no less than -0.1?
n

Entry `HMALKPKITIEELIRILNESKDLSDSETAKILNKDYTTAKYGKEFTSINVQGARYALDIATNTS` : is its soluble fraction (log2) no less than -0.1?
n

Entry `HMQVVVEKSKEKVIISGNQYYIHIVKKGETAFSIAKAYGITVDELVKNNPSAATVLKEGQALRIPVVE` : is its soluble fraction (log2) no less than -0.1?
y

Entry `HMQDQVTLIVQVNGKLRGQISISTDATKELIEQTALANENVQKFVDGQSIKKIIIVPGRLVNIV` : is its soluble fraction (log2) no less than -0.1?
y

Entry `HMAEQDILQSVYPHIGGQDNVSRTISRNGTLYLMLKDASAVDLKAVKQVPGIADAALERGRLTLQLEE` : is its soluble fraction (log2) no less than -0.1?
y

Entry `HMVPTYEAYVGKEGLVVGTLRPAGTAEFDGERLDVVSEGEYLEAGTRVQIVRTEGRRIVVRKIN` : is its soluble fraction (log2) no less than -0.1?
n

Entry `HMSQDEKITNYIYEGNKNTQTEAFVEAEKSYRKALSLSPEKPEALYNLGNTHFLDKQYDEASQRFF` : is its soluble fraction (log2) no less than -0.1?
n

Entry `HMKEDSTIIERIISNLSSASLKTQKAFEYKLTDLMFRFSEGEYEWSSAMEVIREELLPFLNK` : is its soluble fraction (log2) no less than -0.1?
n

Entry `HMDFSSRLKDERKRLKLSQAQLGEAGGVSKDAQLNYENGSRSPSASYLELIAREGVDVQFLLTGKRS` : is its soluble fraction (log2) no less than -0.1?
y

Entry `HMPGTEAQDGEVLLDALRRIHPDSSTGTLRRMLTQGRVQVDGTTVHAAKAELTSGQHVEVVAR` : is its soluble fraction (log2) no less than -0.1?
y

Entry `HMSQIQIKLDQAIMQLPEKQRFVFMLRYFEELPYEKIAQITETSIGGAKANFHQALKKMQEIIQ` : is its soluble fraction (log2) no less than -0.1?
n
